- assayedTarget: human A2b adenosine receptor (Homo sapiens (Human), UniProt P29275)
- Sequence (P29275 whole entry): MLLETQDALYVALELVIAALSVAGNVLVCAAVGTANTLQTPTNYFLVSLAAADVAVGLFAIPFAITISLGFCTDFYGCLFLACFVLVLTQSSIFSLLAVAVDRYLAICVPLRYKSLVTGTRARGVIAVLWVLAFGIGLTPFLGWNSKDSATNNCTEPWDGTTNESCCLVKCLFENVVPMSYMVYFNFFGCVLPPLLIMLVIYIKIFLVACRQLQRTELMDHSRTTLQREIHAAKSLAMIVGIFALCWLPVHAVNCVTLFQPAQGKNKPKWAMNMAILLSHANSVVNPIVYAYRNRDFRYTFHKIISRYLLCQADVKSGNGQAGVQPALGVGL
- testSummary: A2b radioligand filtration binding assay (tritiated proprietary A2b antagonist, HEK293 membranes)
- particulars: unstarred values: radioligand binding
Classify: y when IC50 is strictly less than 300 nM; n when IC50 is not.

Data request: Strictly below 300 nM: is that where IC50 of COc1ccc2c(c1)nc(N)n1nc([C@@H]3CCCN(c4ncn(CC(C)(C)O)n4)C3)nc21 [Example 194] sits?
Data returned: n

Data request: Bench note: check whether COc1cccc2c1nc(N)n1nc(C3CCC[C@@](O)(c4cnn(C)c4)C3)nc21 (mixture of isomers) [Example 134B] shows IC50 below 300 nM
Data returned: y

Data request: # check: IC50 < 300 nM for COc1cccc2c1nc(N)n1nc([C@@H]3CCCN(c4cnn([C@@H]5CCCC[C@]5(C)O)c4)C3)nc21 [Example 42]
Data returned: y

Data request: Lab note: confirm whether the reported IC50 for this compound is below 300 nM, equality not counting. compound: COc1ccc2c(c1)nc(N)n1nc([C@@H]3CC[C@H](C)N(c4cnn(C5CCC[C@@H]5O)c4)C3)nc21 (single isomer, unassigned) [Example 210B]
Data returned: y

Data request: Strictly below 300 nM in IC50? COc1cccc2c1nc(N)n1nc([C@@H]3CCCN(c4cnn(CC(C)(C)O)c4C)C3)nc21 [Example 33]
Data returned: n

Data request: A record lists COc1cccc2c1nc(N)n1nc([C@@H]3CCCN(c4cnc(OC(F)F)c(C)c4)C3)nc21 [Example 100] . Is its IC50 below 300 nM?
Data returned: y

Data request: # TODO verify IC50 < 300 nM strictly for this compound: COc1ccc2c(c1)nc(N)n1nc([C@@H]3CCCN(c4cnn(CC(C)(C)O)c4C)C3)nc21 [Example 181]
Data returned: y

Data request: Is 300 nM strictly greater than the compound's reported IC50? compound: COc1ccc2c(c1)nc(N)n1nc([C@@H]3C[C@H](F)CN(c4cn(CC(C)(C)O)nc4C)C3)nc21 [Example 197B]
Data returned: n

Data request: Please check: IC50 for COc1ccc2c(c1)nc(N)n1nc([C@H]3CC[C@@H](C)N(c4cnn([C@H](C)C(C)(C)O)c4)C3)nc21 [Example 212B] , strictly under 300 nM or not?
Data returned: n

Data request: Please check: IC50 for COc1cccc2c1nc(N)n1nc([C@@H]3CCO[C@@H](c4cnn(C)c4)C3)nc21 [Example 139B] , strictly under 300 nM or not?
Data returned: n

Data request: Lab note: IC50 threshold 300 nM. Does this compound come in strictly under it? COc1cccc2c1nc(N)n1nc([C@@H]3CCCN(c4cnn(C5CCOCC5)n4)C3)nc21 [Example 72]
Data returned: y

Data request: Is 300 nM strictly greater than the compound's reported IC50? compound: Cn1cc(N2CCCC(c3nc4c5c(Cl)ccc(Cl)c5nc(N)n4n3)C2)cn1 (single isomer, unassigned) [Example 169]
Data returned: n

Data request: Please let me know if COc1cccc2c1nc(N)n1nc([C@@H]3CCCN(c4cnn(C5CCS(=O)(=O)CC5)c4)C3)nc21 [Example 122] shows IC50 below 300 nM.
Data returned: y

Data request: Confirm or reject: IC50 of Cc1ccc2c(c1)nc(N)n1nc([C@@H]3CC[C@H](C)N(c4cnn(CC(C)(C)O)c4)C3)nc21 (single isomer, unassigned) [Example 206] lies strictly below 300 nM
Data returned: y

Data request: Determine whether this compound shows IC50 lower than 300 nM (ties excluded): COc1cccc2c1nc(N)n1nc([C@@H]3CCCN(c4cnn([C@@H]5CCCC[C@@H]5O)c4)C3)nc21 [Example 25]
Data returned: y

Data request: Say whether its IC50 is strictly beneath 300 nM. Entry: COc1ccc2c(nc(N)n3nc(C4CCCN(c5cnn(C)c5)C4)nc23)c1F (single isomer, unassigned) [Example 166]
Data returned: y

Data request: is_below(IC50, 300 nM) for COc1cccc2c1nc(N)n1nc([C@@H]3CCCN(c4cnn([C@H]5CCCC[C@]5(C)O)c4)C3)nc21 [Example 43] ?
Data returned: y
